# MEASUREMENT TARGET: 3',5'-cyclic-AMP phosphodiesterase 4B (Homo sapiens) (UniProt Q07343)
# Sequence (Q07343 whole entry): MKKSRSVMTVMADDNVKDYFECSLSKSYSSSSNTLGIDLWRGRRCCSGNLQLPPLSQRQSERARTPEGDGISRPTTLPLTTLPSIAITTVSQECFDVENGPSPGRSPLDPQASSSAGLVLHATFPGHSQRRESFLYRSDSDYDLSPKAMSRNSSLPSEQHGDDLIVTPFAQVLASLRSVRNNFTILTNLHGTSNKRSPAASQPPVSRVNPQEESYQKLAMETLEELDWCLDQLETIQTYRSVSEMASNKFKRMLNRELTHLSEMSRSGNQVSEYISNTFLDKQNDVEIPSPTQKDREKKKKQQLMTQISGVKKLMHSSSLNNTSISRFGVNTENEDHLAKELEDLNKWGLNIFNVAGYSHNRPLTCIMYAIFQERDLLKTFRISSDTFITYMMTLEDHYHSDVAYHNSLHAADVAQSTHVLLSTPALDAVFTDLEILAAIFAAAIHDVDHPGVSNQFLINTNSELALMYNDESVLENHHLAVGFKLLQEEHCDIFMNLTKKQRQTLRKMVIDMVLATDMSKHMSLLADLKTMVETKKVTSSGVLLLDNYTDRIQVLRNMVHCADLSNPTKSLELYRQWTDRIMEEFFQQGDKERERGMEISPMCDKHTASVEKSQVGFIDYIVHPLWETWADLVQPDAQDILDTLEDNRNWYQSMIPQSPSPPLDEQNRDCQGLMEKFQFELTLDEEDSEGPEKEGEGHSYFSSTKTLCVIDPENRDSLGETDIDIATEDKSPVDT
# METHOD DESCRIPTION: Inhibition of recombinant His-tagged PDE4B expressed in Sf9 cells at 30 uM preincubated for 15 mins before cAMP addition measured after 1 hr by luminescence assay
Recorded inhibition, one value per entry.
Give a bare numeral; the unit % is implied.

Look over these answered cases.
Look up and state reported inhibition for CCCCCCC#Cc1ccc(-n2c(-c3ccccc3)cc(C(=O)OCC)c2C(=O)c2ccccc2)cc1
22.1

Look up and state reported inhibition for CCOC(=O)c1cc(-c2ccccc2)n(-c2ccc(/C(C)=C/C(=O)OC)cc2)c1C(=O)c1ccccc1
76.7

Look up and state reported inhibition for CCOC(=O)c1cc(-c2ccccc2)n(-c2ccc(/C=C/C(=O)OC(C)(C)C)cc2)c1C(=O)c1ccccc1
36.1

Look up and state reported inhibition for CCOC(=O)c1cc(-c2ccccc2)n(-c2ccc(-c3ccc(OC)cc3)cc2)c1C(=O)c1ccccc1
24.8

Look up and state reported inhibition for CCOC(=O)/C=C/c1ccc(-n2c(-c3ccccc3)cc(C(=O)OCC)c2C(=O)c2ccccc2)cc1
74.7

Continuing:
Look up and state reported inhibition for CCOC(=O)c1cc(-c2ccccc2)n(-c2ccc(/C=C/C(=O)OC)cc2)c1C(=O)c1ccccc1
45.2
